Data credit: the RNAGym collection of RNA variant scans (doi:10.7554/elife.80360)

B1: CPEB3 Ribozyme (parent)
chain: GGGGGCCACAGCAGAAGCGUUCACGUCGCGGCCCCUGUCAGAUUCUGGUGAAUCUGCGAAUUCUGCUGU

Variants of: B1
Experiment Notes: self-cleavage, relative activity (ratio to wild type); higher = more cleavage; co-transcriptional
Respond with 1 for self-cleavage values of 0.3 and above, 0 for values below.

These recorded examples may help you get a feel for the data.
{"columns": ["Sequence", "Class Name"],
 "data": [
  ["GGGCUCCACAGCAGAAGCGUUCACGUCGCGGCCCCUGUCAGAUUCUGGUGAAUCUGCGAAUUCUGCUGU [G4C G5U]", 0],
  ["GGGGGCCACAGCAGAAGCGUUUACGUCGCGGCCGCUGUCAGAUUCUGGUGAAUCUGCGAAUUCUGCUGU [C22U C34G]", 0],
  ["GGGGGCCACAGCAGAAGCGUUCGCGUCGCGGCCCCUGCCAGAUUCUGGUGAAUCUGCGAAUUCUGCUGU [A23G U38C]", 1],
  ["GGGGGCGACAGCAGAAGCGUUCACGUCGCGGCCCCUGUCAGAUUCUGGUGAAUCUGCGAAUUCUGUUGU [C7G C66U]", 1],
  ["GGGGGCCACAGGAGAAGCGUUCACAUCGCGGCCCCUGUCAGAUUCUGGUGAAUCUGCGAAUUCUGCUGU [C12G G25A]", 0]
]}

query: Entry AGGGGCCACAGCAGAAGCGUUCACGUCGCGGCCCCUGUCUGAUUCUGGUGAAUCUGCGAAUUCUGCUGU [G1A A40U] : is its self-cleavage no less than 0.3?
result: 0

query: Entry GGGGGCGACAGCAGAGGCGUUCACGUCGCGGCCCCUGUCAGAUUCUGGUGAAUCUGCGAAUUCUGCUGU [C7G A16G] : is its self-cleavage no less than 0.3?
result: 1

query: Dear colleague, could you confirm whether GCGGGCCACAGCAGAAGCGUUCACGUCGCGGCCCCUGUCAGAAUCUGGUGAAUCUGCGAAUUCUGCUGU [G2C U43A] has self-cleavage at or above 0.3?
result: 0

query: Confirm if self-cleavage reported for the variant GGGGGCCACAGCAGAAGCGUUCACGUCGCGGCCCCUGUUAGAUUCUGGUGAAUCUGCGAAUCCUGCUGU [C39U U62C] is 0.3 or above.
result: 1

query: Item GGGGGCCACAGCAGAAGCGUUCACCUCGCGGCCCCUGGCAGAUUCUGGUGAAUCUGCGAAUUCUGCUGU [G25C U38G] with self-cleavage of 0.3 or above?
result: 0
